biological target: 5-hydroxytryptamine receptor 2A (Homo sapiens); details: Oryctolagus cuniculus
Description: The compound was tested for binding affinity against 5-HT2A receptor
recordedMetric: p[A50]
Please reply with the value in numeric form only.

Recorded p[A50] of `CN(C)CCc1c[nH]c2ccc(O)cc12` , please.
6.8

Returns the measured p[A50] for the input compound. Input: NCCc1c[nH]c2ccc(CC3NC(=O)N(Cc4ccc(C(=O)Nc5ccccc5)cc4)C3=O)cc12 (configuration not stated)
4.5

Entry CNC(=O)c1cccc(CN2C(=O)NC(Cc3ccc4[nH]cc(CCN)c4c3)C2=O)c1 (configuration not stated) : reported p[A50] = ?
4.3

Would you kindly share the measured p[A50] for `O=C(c1ccc(F)cc1)C1CCN(CCn2c(=O)[nH]c3ccccc3c2=O)CC1` ?
9.1

Query: p[A50]; subject: `NCCc1c[nH]c2ccc(C(N)=O)cc12`
5.9

Fill in: p[A50] of `Cc1ccc2[nH]cc(CCN)c2c1` is ___
6.2

Which p[A50] value is on record for CN(C)CCc1c[nH]c2ccc(CC3NC(=O)N(Cc4cccc(NC(=O)c5ccccc5)c4)C3=O)cc12 (configuration not stated) ?
5

Recorded p[A50] of `Cn1c(Cc2ccc3[nH]cc(CCN)c3c2)cn(Cc2ccccc2)c1=O` , please.
6.3

Give its p[A50] value. Item: CN(C)CCc1c[nH]c2ccc(CC3NC(=O)N(Cc4ccc(Oc5ccccc5)cc4)C3=O)cc12 (configuration not stated)
4.7

Would you mind telling me what p[A50] value was observed for `CN1C(=O)NC[C@@H]1Cc1ccc2[nH]cc(CCN)c2c1` ?
5

What value of measured p[A50] is listed for CN1C(=O)N(Cc2ccccc2)CC1Cc1ccc2[nH]cc(CCN)c2c1 (configuration not stated) ?
5

For the compound shown here, `NCCc1c[nH]c2ccccc12` , give the reported p[A50].
6.1

Form field: reported p[A50] of NCCc1c[nH]c2ccc(CC3NC(=O)N(Cc4ccccc4)C3=O)cc12 (configuration not stated)
4

What measured p[A50] goes with CN1C(=O)NC(Cc2ccc3[nH]cc(CCN)c3c2)C1=O (configuration not stated) ?
4

Please report the recorded p[A50] for CS(=O)(=O)Nc1ccc(CC2NC(=O)N(CCc3ccc4[nH]cc(CCN)c4c3)C2=O)cc1 (configuration not stated) .
5.2

What does the record list as p[A50] for O=C1NCN(c2ccccc2)C12CCN(CC1COc3ccccc3O1)CC2 (configuration not stated) ?
6.2

Any idea what its p[A50] is? The compound is NCCc1c[nH]c2ccc(CC3NC(=O)N(Cc4cccc(NC(=O)c5ccccc5)c4)C3=O)cc12 (configuration not stated)
4.6

Query (compound): NCCc1c[nH]c2ccc(CC3NC(=O)N(Cc4cccc(Oc5ccccc5)c4)C3=O)cc12 (configuration not stated) ; field requested: p[A50]
4.7

Can you look up the measured p[A50] of `CN(C)CCc1c[nH]c2ccc(C[C@H]3COC(=O)N3)cc12` for me?
6.6

# lookup: p[A50] of CN(C)CCc1c[nH]c2ccc(CCC3NC(=O)N(Cc4ccccc4)C3=O)cc12 (configuration not stated)
5.9

Name the recorded p[A50] for `O=C1CC2(CCCC2)CS(=O)(=O)N1CCCCN1CCN(c2ncccn2)CC1` .
5.1

What does the record list as p[A50] for `CS(=O)(=O)Nc1ccc(C[C@H]2NC(=O)N(CCc3ccc4[nH]cc(CCN)c4c3)C2=O)cc1` ?
5.3
